biological target: alpha 1 adrenergic; assay: Radioligand binding assay, alpha 1 adrenergic
recorded_metric: pKi
Reminder that pKi means the negative base-10 logarithm of the concentration expressed in mol/L.

Reported pKi for CCn1ncc(CN2CCN(c3cccnc3N3CCC(O)CC3)CC2)c1C.Cl [Example 1, hydrochloride] : what is it?
5.86

---

molecular target: 5-HT5 (Homo sapiens, UniProt P47898)
Sequence (P47898 whole entry): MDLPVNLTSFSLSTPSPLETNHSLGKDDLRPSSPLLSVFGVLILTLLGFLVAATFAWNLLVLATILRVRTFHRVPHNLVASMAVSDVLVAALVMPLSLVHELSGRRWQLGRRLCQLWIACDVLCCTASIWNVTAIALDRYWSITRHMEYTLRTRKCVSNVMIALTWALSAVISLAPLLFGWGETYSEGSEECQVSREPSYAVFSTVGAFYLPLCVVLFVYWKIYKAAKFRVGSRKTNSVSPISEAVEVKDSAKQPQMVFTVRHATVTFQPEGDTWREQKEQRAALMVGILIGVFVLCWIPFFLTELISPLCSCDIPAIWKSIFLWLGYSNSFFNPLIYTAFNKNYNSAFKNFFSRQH
recorded_metric: Ki (µM)
Record the value in µM, omitting the unit from your answer.

Reported Ki for CCn1ncc(CN2CCN(c3cccnc3N3CCC(O)CC3)CC2)c1C.Cl [Example 1, hydrochloride] : what is it?
4.55
